The values you see were collected from ChEMBL document CHEMBL1201862.

System: SF-295
Experiment: NCI tumour cell line growth inhibition, 48 h
The source made the active and inactive calls. Cut-off read from the data, not from the text of the source: active = GI50 up to about 1.1 µM and inactive = higher.
// one of 1 = active, -1 = inactive, no free text

Worked cases, answers included:
MOLECULE	ASSIGNED_LABEL
COc1ccc(/C=N/N2C(=O)c3c(N)c(C#N)c(-c4ccccc4)c(-c4ccccc4)c3C2=O)cc1	-1
Nc1ncc(Cl)c(NCC2(CO)CC(CCc3ccccc3)C2)n1 (configuration not stated)	-1
C[C@H]1C[C@H]2[C@@H]3C(C)(C)O[C@]4(O)C(=O)[C@]5(O)[C@@H](C)CC[C@H]1[C@]25C(=O)[C@]34C	-1
CCCCN(c1ccccc1)c1ncnc2c1cnn2C	-1
Cc1ccccc1-c1cc(=O)c2cc(C)c(C)c(C(=O)O)c2o1	-1

Q: How did this test come out for CCO/C([O-])=C(/C=O)[n+]1c(C)n(C)c2ccccc21 ?
A: -1

Q: How did this test come out for C=C1C(=O)OC2/C=C(\C)CC/C=C(\C)CC(OC(=O)/C(=C/CO)CO)[C@@H]12 (some centres not stated) ?
A: -1

Q: How did this test come out for COc1cc(/C=C2\C[C@H]3[C@@H]4CC=C5C[C@@H](N6CCCC6)CC[C@]5(C)[C@H]4CC[C@]3(C)[C@H]2OC(C)=O)cc(OC)c1OC ?
A: -1

Q: How did this test come out for CC(=O)c1c(SCCN2CCCC2)n(-c2ccccc2)c(=S)n(-c2ccccc2)c1=O ?
A: -1

Q: How did this test come out for O=c1c2c(nc3[nH]ccn13)CCCC2 ?
A: -1

----------
Give measured GI50 for each item. Keep answers brief.
Tested on: LXFL 529
Experiment: NCI tumour cell line growth inhibition, 48 h
Activity calls are given as the source filed them. No stated cut-off is given here; in the data, active = GI50 up to about 1.1 µM and inactive = higher.

MOLECULE	GI50
O=C1OC2(CC1C1(O)C3CC4CC(C3)CC1C4)C1CC3CC(C1)CC2C3 (stereo not given)	> 100 µM (inactive)
CCCCCCCC[N+](C)(C)Cc1ccc(C[N+](C)(C)CCCCCCCC)cc1	14.6 µM (inactive)
COc1cc2nc(Sc3c([N+](=O)[O-])ncn3C)[nH]c2cc1OC	12.4 µM (inactive)
Cc1ccc2[nH]c3c(C)c4ccncc4c(C)c3c2c1	1.15 µM (inactive)

Please turn your attention to the following entry.
Q: Which GI50 value is on record for CCOC(=O)CN1C(=O)c2cccc3cc([N+](=O)[O-])cc(c23)C1=O ?
A: 1.71 µM (inactive)

----------
System: DU-145
Test: NCI tumour cell line growth inhibition, 48 h
Activity calls are given as the source filed them. Cut-off read from the data, not from the text of the source: active = GI50 up to about 1.1 µM and inactive = higher.
Give measured GI50 for each item. Keep answers brief.

Known results for compounds:
COMPOUND	GI50
O=C1OCCC12CN(Cc1ccccc1)N=N2 (centres undefined)	87.7 µM (inactive)
O=C(Nc1ccc(Cl)cc1)c1cc(S(=O)(=O)Nc2nnc3c(Cl)cc(C(F)(F)F)cn23)c(S)cc1Cl	> 100 µM (inactive)
C=C(C)[C@@H](O)[C@H](O)C[C@H](C)C1CC[C@]2(C)C1=CC[C@@H]1[C@@]3(C)CC[C@@H](OC(C)=O)C(C)(C)[C@@H]3C[C@@H](OC3OC(COC(C)=O)C(O)C(O)C3O)[C@]12C (some centres undefined)	3.4 µM (inactive)
CC(C)=CCN1CC(C)C(=O)Nc2cc(Cl)ccc21 (centres undefined)	30 µM (inactive)
C=C1C(=O)OC2C3C(=C)[C@@H](OC(C)=O)CC3C(C)=CC(OC(=O)C(C)(O)C(C)OC(C)=O)[C@@H]12 (some centres undefined)	16.2 µM (inactive)

List GI50 for every entry below, keeping the order given.
1. CNc1ccc(-c2nc3cc(C)ccc3o2)cc1
2. COc1ccc(C2C3=C(Nc4ncnn42)c2ccccc2OC3c2ccccc2)cc1 (centres undefined)
3. Cc1cccc(/C=C2\CCCCCC2=O)c1
4. COc1cc(C(C[N+](=O)[O-])SC(C)=O)ccc1OCc1ccccc1 (centres undefined)

A:
1: > 100 µM (inactive); 2: > 100 µM (inactive); 3: > 100 µM (inactive); 4: 13.3 µM (inactive)

----------
System: M14
Test: NCI tumour cell line growth inhibition, 48 h
Where a name gives a salt, the structure may show the parent alone. Calls of active or inactive are those of the source. Cut-off read from the data, not from the text of the source: active = GI50 up to about 1.1 µM and inactive = higher. Where a SMILES comes first, the peptide text is derived from it. [ ]: non-standard residue; d: D form. The star is where a group is joined. ξ: configuration not given here. NMeF = CN[CH](Cc1ccccc1)C(=O)O; ξNMe2Val = CC(C)C(C(=O)*)N(C)C; NMeV = CN[CH](C(=O)O)C(C)C; OtBu = CC(C)(C)O*
Give measured GI50 for each item. Keep answers brief.

Known results for compounds:
COMPOUND	TESTED_SYSTEM	GI50
CC(C)C(C(=O)N(C)C(Cc1ccccc1)C(=O)N(C)C(C(=O)N(C)C(C(=O)N1CCCC1C(=O)OC(C)(C)C)C(C)C)C(C)C)N(C)C (centres undefined) (ξNMe2Val-[NMeF][NMeV][NMeV]P-OtBu; configuration not given here)	M14	20 µM (inactive)
CN1CCC(CN2c3ccccc3Sc3ccccc32)C1 (centres undefined) [METHDILAZINE HYDROCHLORIDE]	M14	10.5 µM (inactive)
CN(C(=O)c1ccccc1)c1ccc2c(c1)C(=O)c1ccccc1C2=O	M14	> 100 µM (inactive)

Please turn your attention to the following entry.
Q: # returns recorded GI50 (system: M14) for COc1cc(/C=C/c2csnn2)cc(OC)c1OC
A: > 100 µM (inactive)

----------
System: 786-0
Test: NCI tumour cell line growth inhibition, 48 h
The source made the active and inactive calls. No stated cut-off is given here; in the data, active = GI50 up to about 1.1 µM and inactive = higher.
REPORTED_ENDPOINT: GI50

COMPOUND	TESTED_SYSTEM	GI50
COc1cc(OC)c(-n2[nH]c(=O)n(C)c2=O)c(OC)c1	786-0	> 100 µM (inactive)
Clc1ccc(Cc2nc3cc(CCN4CCN(c5ccccc5)CC4)ccc3[nH]2)cc1	786-0	6.87 µM (inactive)

List GI50 for every entry below, keeping the order given.
1. NC(=O)CN1C=CCC(C(N)=O)=C1 [CARICOTAMIDE]
2. COc1ccc(/C(Cl)=C(\c2ccc(OCCN(C)C)cc2)c2ccc(OC(=O)C(C)(C)C)cc2)cc1

A:
> 100 µM (inactive)
10.4 µM (inactive)

List GI50 for every entry below, keeping the order given.
1. CC(=O)c1c(SCCN2CCCC2)n(-c2ccccc2)c(=S)n(-c2ccccc2)c1=O
2. COC(=O)CC1N/C(=N\C#N)N(CCc2c[nH]c3ccccc23)C1=O (stereo not given)

A:
["1.6 µM (inactive)", "> 100 µM (inactive)"]

List GI50 for every entry below, keeping the order given.
1. O=C1c2ccccc2-c2nc(-c3cccc([N+](=O)[O-])c3)nnc21
2. NS(=O)(=O)c1nnc(NS(=O)(=O)c2ccc(Cl)cc2)s1
3. Cc1cc2c(cc1Cl)SC(NNC(=O)c1ccncc1)=NS2(=O)=O
4. CCCn1cnc2c(/N=N/O)ncnc21

A:
30.5 µM (inactive)
> 100 µM (inactive)
> 10 µM (inactive)
> 100 µM (inactive)

----------
System: SR
Experiment: NCI tumour cell line growth inhibition, 48 h
Active and inactive are the calls of the source. Rule as the data show it: active = GI50 up to about 1.1 µM and inactive = higher.
// one of true for active, false for inactive, no free text

COMPOUND	TESTED_SYSTEM	ASSIGNED_LABEL
CC(C)CNC(=O)Cn1c(-c2ccccc2)cc2ccccc21	SR	false

Q: How did this test come out for COc1ccc2c(c1)c1c3c(ccc4ncn2c43)N(CCN(C)C)CCN=1 ?
A: true

Q: How did this test come out for COC(=O)[C@@]12C(=O)C(C)C(=O)[C@]1(C)C(C)=C[C@H]1[C@]3(C=O)CC[C@H](OC(C)=O)C(C)(C)[C@H]3CC[C@@]12C (some centres undefined) ?
A: false

Q: How did this test come out for O=c1c(C(c2ccccc2)c2c(O)oc3cc(O)ccc3c2=O)c(O)oc2cc(O)ccc12 ?
A: false

Q: How did this test come out for CCN(CC)C(=O)Cc1[nH][nH]c(=O)c1C(=O)N(CC)CC ?
A: false

----------
Tested on: HL-60
Test: NCI tumour cell line growth inhibition, 48 h
Activity calls are given as the source filed them. No stated cut-off is given here; in the data, active = GI50 up to about 1.1 µM and inactive = higher.
// one of active, inactive, no free text

COMPOUND	ASSIGNED_LABEL
CC(C)[C@@H](C)[C@@]1(C)C[C@@H]1[C@@H](C)[C@H]1CC[C@@H]([C@@H]2CC=C3C[C@@H](O)CC[C@]3(C)C2=O)[C@]1(C)CCO	inactive
C=Cc1c(C)c2cc3nc(c4c5[nH]c(cc6nc(cc1[nH]2)C(C)=C6CC)c(C)c5C(=O)C4C(=O)OC)C(CCC(=O)OC)C3C (stereo not drawn)	inactive
COc1ccc(/C=C/C(=O)C(C)C)cc1	inactive
O=C(O)CCSCc1ccc(I)cc1	inactive
O=C(O)CCCNS(=O)(=O)c1ccccc1	inactive
COC(=O)[C@@]12C(=O)C(C)C(=O)[C@]1(C)C(C)=C[C@H]1[C@]3(C=O)CC[C@H](OC(C)=O)C(C)(C)[C@H]3CC[C@@]12C (stereo partly drawn)	inactive

Q: How did this test come out for COc1cccc2c1C(=O)c1c(O)c3c(c(O)c1C2=O)C[C@@](O)(C(=O)CO)CC3OC1CC(N)C(OC2CCCCO2)C(C)O1 (stereo partly drawn) ?
A: active

Q: How did this test come out for CN(C)CCNC(=O)c1cccc2nc3ccc4cccnc4c3nc12 ?
A: active
